Catalogue of average value of fluorescence brightness, base number removed readings, one per entry.
target: sodium ion channel of Trpm5 bitter receptor (Mus musculus); construct: Put the removed tongue in a 2 ml EP tube, add 1-1.5 ml of 0.25% trypsin solution; from tissue; host or cells: cells dissociated with trypsin from mouse tongue; test: Immunofluorescence experiment of sodium ion channels in mouse tongue cells stimulated with bitter agent; format: cell-based, mice; settings: Addition of drugs
Write no unit; give the number alone.

Record excerpt, results attached:
molecule | tested system | reported
CC(C)=CCCC(C)=CC=O [Citral, citral] | sodium ion channel of Trpm5 bitter receptor (Mus musculus) | −0.335
CC1CCC(C(C)C)C(O)C1 (centres unmarked) [Menthol, 2-isopropyl-5-methylcyclohexanol] | sodium ion channel of Trpm5 bitter receptor (Mus musculus) | −0.435
O=CC=Cc1ccccc1 [Cinnamaldehyde, 3-phenyl-2-propenal] | sodium ion channel of Trpm5 bitter receptor (Mus musculus) | −0.328
C=CC(C)(O)CCC=C(C)C (centres unmarked) [Linalool, linalool] | sodium ion channel of Trpm5 bitter receptor (Mus musculus) | −0.135
CC1CCC(C(C)C)C(=O)C1 (centres unmarked) [Menthone, 5-methyl-2-isopropylcyclohexanone] | sodium ion channel of Trpm5 bitter receptor (Mus musculus) | −0.076

Input line: What reported average value of fluorescence brightness, base number removed corresponds to COc1ccc(CCN(C)CCCC(C#N)(c2ccc(OC)c(OC)c2)C(C)C)cc1OC (centres unmarked) [Verapamil, reference compound] on sodium ion channel of Trpm5 bitter receptor (Mus musculus)?
Output line: −0.085

Input line: What reported average value of fluorescence brightness, base number removed corresponds to O=P(c1ccccc1)(c1ccccc1)c1ccccc1 [Triphenylphosphine oxide, reference compound] on sodium ion channel of Trpm5 bitter receptor (Mus musculus)?
Output line: −0.243

Input line: What reported average value of fluorescence brightness, base number removed corresponds to CC1CCC(C(C)C)C(OC(=O)C(C)O)C1 (centres unmarked) [Menthyl lactate] on sodium ion channel of Trpm5 bitter receptor (Mus musculus)?
Output line: −0.113

###

target: sodium ion channel of Trpm5 bitter receptor (Mus musculus); construct: Put the removed tongue in a 2 ml EP tube, add 1-1.5 ml of 0.25% trypsin solution; from tissue; host or cells: cells dissociated with trypsin from mouse tongue; experiment: Immunofluorescence experiment of sodium ion channels in mouse tongue cells stimulated with bitter agent; format: cell-based, mice; conditions: Addition of drugs
Catalogue of average value of fluorescence brightness, base number removed readings, one per entry.
Write no unit; give the number alone.

Record excerpt, results attached:
compound | reported
COc1cc(C(=O)O)ccc1O [Vanillic acid, 3-methoxy-4-hydroxybenzoic acid] | −0.107
NCCCC(=O)O | 0.082
C=CCc1ccc(OC(C)=O)c(OC)c1 [Eugenol acetate] | −0.125
CCCCC[C@H](O)CC(=O)CCc1ccc(O)c(OC)c1 | −0.093

Shift focus to the following entry.
Input line: Using the record for CC(C)[C@@H]1CC[C@@H](C)C[C@H]1OC(=O)CCC(=O)O [Menthyl succinate] , report its average value of fluorescence brightness, base number removed.
Output line: 0.041

###

Molecular target: sodium ion channel of Trpm5 bitter receptor (Mus musculus, UniProt Q9JJH7)
Construct: Put the removed tongue in a 2 ml EP tube, add 1-1.5 ml of 0.25% trypsin solution; from tissue; host or cells: cells dissociated with trypsin from mouse tongue
Sequence (Q9JJH7 1-1158): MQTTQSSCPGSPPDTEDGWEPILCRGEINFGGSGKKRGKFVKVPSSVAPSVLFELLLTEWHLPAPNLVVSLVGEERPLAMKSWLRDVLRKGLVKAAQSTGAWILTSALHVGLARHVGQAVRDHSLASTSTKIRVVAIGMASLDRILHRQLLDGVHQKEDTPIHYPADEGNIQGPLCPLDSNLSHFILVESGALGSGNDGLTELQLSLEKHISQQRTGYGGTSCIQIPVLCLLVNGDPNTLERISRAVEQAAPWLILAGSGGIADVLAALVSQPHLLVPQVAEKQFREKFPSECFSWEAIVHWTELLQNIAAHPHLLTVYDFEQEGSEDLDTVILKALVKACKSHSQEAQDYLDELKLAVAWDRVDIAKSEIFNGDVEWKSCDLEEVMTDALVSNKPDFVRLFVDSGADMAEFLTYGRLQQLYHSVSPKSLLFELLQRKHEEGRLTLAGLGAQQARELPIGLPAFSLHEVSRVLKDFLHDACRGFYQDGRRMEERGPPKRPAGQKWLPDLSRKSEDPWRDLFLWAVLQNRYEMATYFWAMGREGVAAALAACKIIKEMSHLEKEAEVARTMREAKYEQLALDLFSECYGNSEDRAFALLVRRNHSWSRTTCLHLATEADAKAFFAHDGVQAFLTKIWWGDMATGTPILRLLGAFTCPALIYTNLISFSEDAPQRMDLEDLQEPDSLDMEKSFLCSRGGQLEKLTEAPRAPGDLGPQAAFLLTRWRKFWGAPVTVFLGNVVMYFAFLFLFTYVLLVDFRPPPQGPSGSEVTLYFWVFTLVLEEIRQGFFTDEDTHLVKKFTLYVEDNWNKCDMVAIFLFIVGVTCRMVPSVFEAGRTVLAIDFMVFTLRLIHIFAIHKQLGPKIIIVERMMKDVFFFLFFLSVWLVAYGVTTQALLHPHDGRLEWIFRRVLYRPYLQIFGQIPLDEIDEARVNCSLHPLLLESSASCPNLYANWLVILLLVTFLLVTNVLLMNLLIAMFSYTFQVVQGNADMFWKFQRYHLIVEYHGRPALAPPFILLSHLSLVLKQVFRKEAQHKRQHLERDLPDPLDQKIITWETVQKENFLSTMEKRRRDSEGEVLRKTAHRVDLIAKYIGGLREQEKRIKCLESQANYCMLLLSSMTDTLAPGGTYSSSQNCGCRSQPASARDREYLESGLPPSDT
Test: Immunofluorescence experiment of sodium ion channels in mouse tongue cells stimulated with bitter agent
Format: cell-based, mice
Conditions: Bitterant 120 s (2% metronidazole solution)
Label n if average value of fluorescence brightness, base number removed falls below -0.2; label y in every other case.

Input line: Reported average value of fluorescence brightness, base number removed at or above -0.2? NCCCC(=O)O
Output line: y

###

Catalogue of average value of fluorescence brightness, base number removed readings, one per entry.
target: sodium ion channel of Trpm5 bitter receptor (Mus musculus); construct: Put the removed tongue in a 2 ml EP tube, add 1-1.5 ml of 0.25% trypsin solution; from tissue; host or cells: cells dissociated with trypsin from mouse tongue; assay: Immunofluorescence experiment of sodium ion channels in mouse tongue cells stimulated with bitter agent; format: cell-based, mice; details: Bitterant 60 s (2% metronidazole solution)
Write no unit; give the number alone.

Record excerpt, results attached:
compound | reported
CC1CCC(C(C)C)C(=O)C1 (stereo not drawn) | −0.141
O=P(c1ccccc1)(c1ccccc1)c1ccccc1 [Triphenylphosphine oxide, reference compound] | −0.308
C=CCc1ccc(OC(C)=O)c(OC)c1 [Eugenol acetate] | −0.431
CC(C)=CCCC(C)=CC=O | −0.512

Input line: Using the record for CCCCC[C@H](O)CC(=O)CCc1ccc(O)c(OC)c1 , report its average value of fluorescence brightness, base number removed.
Output line: −0.187

Input line: Using the record for CC(C)[C@@H]1CC[C@@H](C)C[C@H]1OC(=O)CCC(=O)O [Menthyl succinate] , report its average value of fluorescence brightness, base number removed.
Output line: −0.132

Input line: Using the record for O=CC=Cc1ccccc1 , report its average value of fluorescence brightness, base number removed.
Output line: −0.452

Input line: Using the record for CC1CCC(C(C)C)C(O)C1 (stereo not drawn) , report its average value of fluorescence brightness, base number removed.
Output line: −0.513

Input line: Using the record for COc1ccc(CCN(C)CCCC(C#N)(c2ccc(OC)c(OC)c2)C(C)C)cc1OC (stereo not drawn) [Verapamil, reference compound] , report its average value of fluorescence brightness, base number removed.
Output line: 0.234

Input line: Using the record for NCCCC(=O)O , report its average value of fluorescence brightness, base number removed.
Output line: 0.002

Input line: Using the record for CC1CCC(C(C)C)C(OC(=O)C(C)O)C1 (stereo not drawn) [Menthyl lactate] , report its average value of fluorescence brightness, base number removed.
Output line: −0.397

Input line: Using the record for COc1cc(C(=O)O)ccc1O [Vanillic acid, 3-methoxy-4-hydroxybenzoic acid] , report its average value of fluorescence brightness, base number removed.
Output line: −0.213

###

Catalogue of average value of fluorescence brightness readings, one per entry.
biological target: sodium ion channel of Trpm5 bitter receptor (Mus musculus); construct: Put the removed tongue in a 2 ml EP tube, add 1-1.5 ml of 0.25% trypsin solution; from tissue; host or cells: cells dissociated with trypsin from mouse tongue; assay: Immunofluorescence experiment of sodium ion channels in mouse tongue cells stimulated with bitter agent; format: cell-based, mice; conditions: Bitterant 60 s (2% metronidazole solution)

Record excerpt, results attached:
molecule | value kind | reported
O=CC=Cc1ccccc1 | average value of fluorescence brightness | 30.893
CC1CCC(C(C)C)C(O)C1 (stereo not shown) | average value of fluorescence brightness | 22.04
COc1cc(C(=O)O)ccc1O [Vanillic acid, 3-methoxy-4-hydroxybenzoic acid] | average value of fluorescence brightness | 26.689
O=P(c1ccccc1)(c1ccccc1)c1ccccc1 [Triphenylphosphine oxide, reference compound] | average value of fluorescence brightness | 88.608
CCCCC[C@H](O)CC(=O)CCc1ccc(O)c(OC)c1 | average value of fluorescence brightness | 25.15
C=CC(C)(O)CCC=C(C)C (stereo not shown) | average value of fluorescence brightness | 27.649

Input line: Using the record for C=CCc1ccc(OC(C)=O)c(OC)c1 [Eugenol acetate] , report its average value of fluorescence brightness.
Output line: 27.797

Input line: Using the record for COc1ccc(CCN(C)CCCC(C#N)(c2ccc(OC)c(OC)c2)C(C)C)cc1OC (stereo not shown) [Verapamil, reference compound] , report its average value of fluorescence brightness.
Output line: 28.089

Input line: Using the record for CC(C)[C@@H]1CC[C@@H](C)C[C@H]1OC(=O)CCC(=O)O [Menthyl succinate] , report its average value of fluorescence brightness.
Output line: 28.747

All values here come from patent US20250108023A1.
